System: XIP peptide (Xip251-270) binding
ASSAY_REMARKS: small-molecule binders of XIP peptide, primary screen, biochemical, small-molecule microarray, fluorescence 635/667 nm, 0.1 µg/mL protein (AID 1182)
DETAILS: fluorescent protein binding, 635 nm, higher = more signal, called active from +8 up or from −8 down
Would you kindly list composite z-score for each of these compounds?
Give the value as a plain number.

Please list composite z-score recorded for the compound CC(C)(C)OC(=O)CC[C@@]1(C(=O)NCc2ccccc2)N=C(c2ccc(OCCCO)cc2)O[C@@H]1c1ccccc1CN=[N+]=[N-] 1.42

Please list composite z-score recorded for the compound CCCC[C@@H](O)C1=C(C)C[C@H]2C(=O)N(C)C(=O)[C@H]2[C@H]1CO 0.627

Please list composite z-score recorded for the compound C=CCNC(=O)[C@H]1[C@@H]2C(=O)O[C@@H](c3ccccc3)[C@@H](c3ccccc3)N2[C@@H](c2ccccc2OCCO)[C@]12C(=O)N(C(=O)OCCOC)c1ccc(C#CCCO)cc12 0.58

Please list composite z-score recorded for the compound C=CCN1C(=O)[C@]2(O[C@H](CCn3cc([C@H](O)c4ccccc4)nn3)[C@@H]([Si](C)(C)c3ccc(OC)cc3)[C@@H]2C)c2cc(N3CCOC3=O)ccc21 0.865

Please list composite z-score recorded for the compound O=C(NC1CC1)[C@@H]1c2ccccc2C(=O)N(Cc2ccccc2C(F)(F)F)[C@H]1c1ccc(CO)cc1 0.62

Please list composite z-score recorded for the compound CC(C)C[C@@H]1NC(=O)[C@@]23C(=O)N[C@@H](Cc4ccccc4)C2[C@H](C)[C@@]2(C)O[C@H]2C3/C=C/C/C=C\CNC(=O)[C@H](Cc2ccccc2)NC1=O (stereo partly specified) 0.0183
